Below, each entry is listed with its recorded IC50.
targetSystem: Geranylgeranyl transferase type I (Bos taurus, UniProt P29702+Q5EAD5)
methodSummary: In vitro inhibitory activity against Geranylgeranyl transferase in the geranylgeranylation of H-ras-CAIL protein
# output: numeric value plus its unit

CSCC[C@H](NC(=O)[C@H](/C=C\[C@@H](/C=C/[C@@H](N)CS)C(C)C)Cc1ccccc1)C(=O)O :: 1 nM
CSCC[C@H](NC(=O)[C@@H]1C[C@H](Oc2ccc(-c3ccccc3)cc2)CN1C/C=C/[C@@H](N)CS)C(=O)O :: 250 nM
CSCC[C@H](NC(=O)[C@@H]1C[C@H](Oc2ccccc2)CN1CC/C=C/[C@@H](N)CS)C(=O)O :: 570 nM
CSCCC(NC(=O)[C@@H]1C[C@H](Oc2ccccc2)CN1C/C=C/[C@@H](N)CS)C(=O)O (single isomer, unassigned) :: 53 nM
CSCC[C@H](NC(=O)[C@@H]1C[C@H](Oc2cccc3c2CCCC3)CN1C/C=C/[C@@H](N)CS)C(=O)O :: 89 nM
CSCC[C@H](NC(=O)[C@@H]1C[C@@H](Oc2ccccc2)CN1C/C=C/[C@@H](N)CS)C(=O)O :: 8000 nM
CSCC[C@H](NC(=O)[C@@H]1C[C@H](Oc2ccccc2)CN1CCCC[C@@H](N)CS)C(=O)O :: 3300 nM
CSCC[C@H](NC(=O)[C@@H]1C[C@H](Oc2ccc(C(C)C)cc2)CN1C/C=C/[C@@H](N)CS)C(=O)O :: 210 nM
COc1ccc(O[C@H]2CC(C(=O)NC(CCSC)C(=O)O)N(C/C=C/[C@@H](N)CS)C2)cc1OC (single isomer, unassigned) :: 67000 nM
CSCC[C@@H](NC(=O)[C@H]1C[C@H](Oc2ccccc2)CN1C/C=C/[C@@H](N)CS)C(=O)O :: 11000 nM

Given the compound CCCc1ccccc1O[C@H]1C[C@@H](C(=O)N[C@@H](CCSC)C(=O)O)N(C/C=C/[C@@H](N)CS)C1 , what is its reported IC50?
170 nM

Another: CSCC[C@H](NC(=O)[C@@H]1C[C@H](Oc2ccccc2)CN1C(=O)[C@H](/C=C/[C@@H](N)CS)C(C)C)C(=O)O
11 nM

Another: CSCC[C@H](NC(=O)[C@@H]1C[C@H](Oc2cccc3ccccc23)CN1C/C=C/C(N)CS)C(=O)O (some centres not stated)
200 nM

Another: CSCC[C@H](NC(=O)[C@@H]1C[C@H](Oc2ccccc2)CN1C[C@H](/C=C/[C@@H](N)CS)C(C)C)C(=O)O
150 nM

Another: CSCC[C@H](NC(=O)[C@@H]1C[C@H](Oc2ccc(C(F)(F)F)cc2)CN1C/C=C/[C@@H](N)CS)C(=O)O
110 nM

Another: CSCC[C@H](NC(=O)[C@@H]1C[C@H](Oc2ccccc2)CN1C(=O)CCC[C@@H](N)CS)C(=O)O
100 nM

Another: CCCCc1ccc(O[C@H]2C[C@@H](C(=O)N[C@@H](CCSC)C(=O)O)N(C/C=C/[C@@H](N)CS)C2)cc1
180 nM

* * *

targetSystem: Protein farnesyltransferase (Bos taurus, UniProt P29702+P49355)
methodSummary: Inhibitory concentration was evaluated against Farnesyltransferase in the farnesylation of H-ras protein
Format: protein-complex assay
measurementLabel: IC50 (nM)
Number only, in nM; omit the unit.

CSCC[C@H](NC(=O)[C@@H]1C[C@H](Oc2cccc3ccccc23)CN1C/C=C/C(N)CS)C(=O)O (some centres not stated) :: 100
CSCC[C@H](NC(=O)[C@@H]1C[C@H](Oc2ccccc2)CN1C[C@H](/C=C/[C@@H](N)CS)C(C)C)C(=O)O :: 17
CSCCC(NC(=O)[C@@H]1C[C@H](Oc2ccccc2)CN1C/C=C/[C@@H](N)CS)C(=O)O (single isomer, unassigned) :: 57
CSCC[C@H](NC(=O)[C@@H]1C[C@H](Oc2ccccc2)CN1CCCC[C@@H](N)CS)C(=O)O :: 20
CSCC[C@H](NC(=O)[C@@H]1C[C@H](Oc2ccccc2)CN1C(=O)CCC[C@@H](N)CS)C(=O)O :: 2
CSCC[C@@H](NC(=O)[C@H]1C[C@H](Oc2ccccc2)CN1C/C=C/[C@@H](N)CS)C(=O)O :: 3300
CSCC[C@H](NC(=O)[C@@H]1C[C@H](Oc2ccc(-c3ccccc3)cc2)CN1C/C=C/[C@@H](N)CS)C(=O)O :: 35
CSCC[C@H](NC(=O)[C@@H]1C[C@@H](Oc2ccccc2)CN1C/C=C/[C@@H](N)CS)C(=O)O :: 4000
CCCCc1ccc(O[C@H]2C[C@@H](C(=O)N[C@@H](CCSC)C(=O)O)N(C/C=C/[C@@H](N)CS)C2)cc1 :: 87
CSCC[C@H](NC(=O)[C@@H]1C[C@H](Oc2ccc(C(F)(F)F)cc2)CN1C/C=C/[C@@H](N)CS)C(=O)O :: 110

Given the molecule CSCC[C@H](NC(=O)[C@@H]1C[C@H](Oc2ccccc2)CN1CC/C=C/[C@@H](N)CS)C(=O)O , what is its reported IC50?
20

Another: CSCC[C@H](NC(=O)[C@@H]1C[C@H](Oc2ccc(C(C)C)cc2)CN1C/C=C/[C@@H](N)CS)C(=O)O
82

Another: CSCC[C@H](NC(=O)[C@@H]1C[C@H](Oc2cccc3c2CCCC3)CN1C/C=C/[C@@H](N)CS)C(=O)O
47

* * *

targetSystem: Protein farnesyltransferase (Mus musculus, UniProt Q61239+Q8K2I1)
methodSummary: Inhibitory concentration against Farnesyltransferase for Farnesylation of H-ras protein InNIH 3T3 cells transformed with activated H-ras
Below, each entry is listed with its recorded pIC50.
In textbook form, pIC50 equals minus log to base ten of the concentration in mol/L.

COC(=O)[C@H](CCSC)NC(=O)[C@@H]1C[C@H](Oc2ccccc2)CN1CC/C=C/[C@@H](N)CS :: 6.31

Next, consider the following compound.
Given the compound COC(=O)[C@H](CCSC)NC(=O)[C@@H]1C[C@H](Oc2ccc(-c3ccccc3)cc2)CN1C/C=C/[C@@H](N)CS , what is its reported pIC50?
5.48

* * *

Below, each entry is listed with its recorded IC50.
targetSystem: Protein farnesyltransferase (Bos taurus, UniProt P29702+P49355)
methodSummary: Inhibitory concentration was evaluated against Farnesyltransferase in the farnesylation of H-ras protein
Number only, in nM; omit the unit.

The cases that follow already have their IC50 on record.
CSCC[C@H](NC(=O)[C@@H]1C[C@H](Oc2ccccc2)CN1C(=O)[C@H](/C=C/[C@@H](N)CS)C(C)C)C(=O)O :: 18
COc1ccc(O[C@H]2CC(C(=O)NC(CCSC)C(=O)O)N(C/C=C/[C@@H](N)CS)C2)cc1OC (single isomer, unassigned) :: 450
CCCc1ccccc1O[C@H]1C[C@@H](C(=O)N[C@@H](CCSC)C(=O)O)N(C/C=C/[C@@H](N)CS)C1 :: 210

Next, consider the following compound.
Given the compound CSCC[C@H](NC(=O)[C@H](/C=C\[C@@H](/C=C/[C@@H](N)CS)C(C)C)Cc1ccccc1)C(=O)O , what is its reported IC50?
26

* * *

targetSystem: Protein farnesyltransferase (Mus musculus, UniProt Q61239+Q8K2I1)
methodSummary: Inhibitory concentration against Farnesyltransferase for Farnesylation of H-ras protein InNIH 3T3 cells transformed with activated H-ras
Below, each entry is listed with its recorded IC50.
Number only, in µM; omit the unit.

The cases that follow already have their IC50 on record.
COC(=O)[C@@H](CCSC)NC(=O)[C@@H]1C[C@H](Oc2ccccc2)CN1C/C=C/[C@@H](N)CS :: 5.3
COC(=O)[C@H](CCSC)NC(=O)[C@@H]1C[C@H](Oc2ccccc2)CN1CCCC[C@@H](N)CS :: 0.35
COC(=O)[C@H](CCSC)NC(=O)[C@@H]1C[C@H](Oc2ccc(C(C)C)cc2)CN1C/C=C/[C@@H](N)CS :: 3

Given the compound COC(=O)[C@H](CCSC)NC(=O)[C@@H]1C[C@H](Oc2ccccc2)CN1C[C@H](/C=C/[C@@H](N)CS)C(C)C , what is its reported IC50?
0.04

Another: CSCC[C@H](NC(=O)[C@H](/C=C\[C@@H](/C=C/[C@@H](N)CS)C(C)C)Cc1ccccc1)C(=O)O
0.37

Another: COC(=O)[C@H](CCSC)NC(=O)[C@@H]1C[C@H](Oc2cccc3ccccc23)CN1C/C=C/C(N)CS (stereo not given in full)
22.5

Another: COC(=O)[C@H](CCSC)NC(=O)[C@@H]1C[C@H](Oc2ccccc2)CN1C(=O)[C@H](/C=C/[C@@H](N)CS)C(C)C
0.84

Another: COC(=O)[C@H](CCSC)NC(=O)[C@@H]1C[C@H](Oc2ccccc2)CN1C(=O)CCC[C@@H](N)CS
2

Another: CCCCc1ccc(O[C@H]2C[C@@H](C(=O)N[C@@H](CCSC)C(=O)OC)N(C/C=C/[C@@H](N)CS)C2)cc1
3.2
